Experiment: APR_HepG2_CellLoss_24hr: Apredica 24-hour HepG2 Assay for Cell Loss (AID 2282908)
Conditions: high-content imaging
Calls of active or inactive are those of the source. Rule for the calls: active = hit-call score of the fitted dose curve at least 0.9, where 1 is the maximum; inactive = score below 0.9.
Your response should consist of one outcome taken from active, inactive

# count of solved cases: 2
compound | assigned-category
CCOCCOCCOCCO | inactive
Cn1c(=O)c2c(ncn2C)n(C)c1=O | inactive

QUERY: Hi, sorry to bother you, what did the test record for CC(C)(O)c1coc(S(=O)(=O)NC(=O)Nc2c3c(cc4c2CCC4)CCC3)c1 ?
RESULT: inactive

QUERY: How was O=C(O)c1cccc(Oc2ccccc2)c1 classified in this test?
RESULT: inactive
